organism: Rattus norvegicus; experiment: Open TG-GATES - Regimen: Daily Repeat; type: toxicity, organism-based, Sprague-Dawley; parameters: regimen Daily Repeat, gender Male, age 6 weeks; details: in vivo, po, 0 mg/kg, […], tissue Plasma, route gavage, dose level Control, time 14 day
measured.attribute: BUN (mg/dL)
Numeric only. Scale: mg/dL

-- ask For the compound NS(=O)(=O)c1cc(C(=O)O)c(NCc2ccco2)cc1Cl [FUROSEMIDE] , give its reported BUN.
-- reply 15.2

-- ask Specify reported BUN for the compound shown: CCCCC1C(=O)N(c2ccccc2)N(c2ccccc2)C1=O
-- reply 19.6

-- ask Provide BUN value for the following compound: O=C(O)c1ccccc1Nc1ccccc1
-- reply 13.8

-- ask In one line, give reported BUN of the entry CC(=O)[C@@]1(O)CC[C@H]2[C@@H]3C=C(Cl)C4=CC(=O)CC[C@]4(C)[C@H]3CC[C@@]21C .
-- reply 17.6

-- ask Note down BUN recorded for CCO
-- reply 19

-- ask For the compound O=c1ccc2ccccc2o1 , give its measured BUN value.
-- reply 17.2

-- ask Query BUN for Nc1ccc(Cc2ccc(N)cc2)cc1
-- reply 15.4

###

species: Rattus norvegicus; assay: Open TG-GATES - Regimen: Single; assay type: toxicity, organism-based, Sprague-Dawley; design: regimen Single, gender Male, age 6 weeks; details: in vivo, po, 0 mg/kg, 24 h, tissue Kidney, route gavage, dose level Control
Assignment: determine reported KIDNEY_L for the given compounds.
The reply should be a number in g, with the unit left off.

-- ask Entry O=C(O)c1ccccc1Nc1ccccc1 needs its KIDNEY_L filled in; supply it.
-- reply 1

-- ask Return reported KIDNEY_L. Input compound: C=C[C@H]1C[N@@]2CC[C@H]1C[C@@H]2[C@@H](O)c1ccnc2ccc(OC)cc12
-- reply 1

-- ask Answer with reported KIDNEY_L of O=c1ccc2ccccc2o1
-- reply 0.9

-- ask State its KIDNEY_L for this compound: CC(S)C(=O)NCC(=O)O (stereo unspecified)
-- reply 1

-- ask Please report the measured KIDNEY_L for CN(C/C=C/C#CC(C)(C)C)Cc1cccc2ccccc12
-- reply 1

-- ask Consider the compound CC(=O)[C@@]1(O)CC[C@H]2[C@@H]3C=C(Cl)C4=CC(=O)CC[C@]4(C)[C@H]3CC[C@@]21C and give its recorded KIDNEY_L.
-- reply 1

###

I'd be grateful if you could share measured Bas for these entries.
species on record: Rattus norvegicus; assay: Open TG-GATES - Regimen: Daily Repeat; assay type: toxicity, organism-based, Sprague-Dawley; design: regimen Daily Repeat, gender Male, age 6 weeks; details: in vivo, po, 1000 mg/kg, […], tissue Blood, route gavage, dose level High, time 7 day
State the answer as a number, implicitly in %.

-- ask Please report Bas for the following compound: CCCCNC(=O)NS(=O)(=O)c1ccc(C)cc1 [TOLBUTAMIDE]
-- reply 0.4

-- ask Supply reported Bas belonging to this compound: CC(=O)[C@@]1(O)CC[C@H]2[C@@H]3C=C(Cl)C4=CC(=O)CC[C@]4(C)[C@H]3CC[C@@]21C [CHLORMADINONE]
-- reply 0

-- ask // Input: O=C(O)c1ccccc1Nc1ccccc1 [FENAMIC ACID] . Output its Bas only.
-- reply 1

###

species on record: Rattus norvegicus; assay: Open TG-GATES - Regimen: Single; assay type: toxicity, organism-based, Sprague-Dawley; parameters: regimen Single, gender Male, age 6 weeks; conditions: in vivo, po, 0 mg/kg, 3 h, tissue Plasma, route gavage, dose level Control
measured.attribute: Cl (meq/L)
Unit meq/L implied. Number only.

-- ask Answer with the recorded Cl for the molecule listed here: CC(=O)[C@@]1(O)CC[C@H]2[C@@H]3C=C(Cl)C4=CC(=O)CC[C@]4(C)[C@H]3CC[C@@]21C [CHLORMADINONE]
-- reply 105.2

-- ask Indicate the recorded Cl value for this molecule: Nc1ccc(Cc2ccc(N)cc2)cc1
-- reply 106.8

-- ask Supply reported Cl belonging to this molecule: CCO [ALCOHOL]
-- reply 103.8

-- ask Check the records and state Cl for O=C(O)c1ccccc1Nc1ccccc1 [FENAMIC ACID]
-- reply 105.4

###

organism: Rattus norvegicus; experiment: Open TG-GATES - Regimen: Daily Repeat; format: toxicity, organism-based, Sprague-Dawley; set-up: regimen Daily Repeat, gender Male, age 6 weeks; conditions: in vivo, po, 0 mg/kg, […], tissue Blood, route gavage, dose level Control, time 28 day
Threshold rule: APTT greater than or equal to 20 s is 1 (yes); below that, 0 (no).

-- ask Answer whether APTT of NS(=O)(=O)c1cc(C(=O)O)c(NCc2ccco2)cc1Cl [FUROSEMIDE] is greater than or equal to 20 s.
-- reply 0 (no)

-- ask Would you say CCCCNC(=O)NS(=O)(=O)c1ccc(C)cc1 [TOLBUTAMIDE] shows APTT at minimum 20 s?
-- reply 0 (no)

-- ask Does APTT meet or surpass 20 s for CC(S)C(=O)NCC(=O)O (stereo not drawn) ?
-- reply 1 (yes)

-- ask Test whether the compound Nc1ccc(Cc2ccc(N)cc2)cc1 records APTT of 20 s or higher.
-- reply 0 (no)

-- ask Could you tell me if the measured APTT of CCN(CC)C(=S)SSC(=S)N(CC)CC reaches 20 s or more?
-- reply 1 (yes)

-- ask Threshold query (APTT >= 20 s) on CN(CCOc1ccc(CC2SC(=O)NC2=O)cc1)c1ccccn1.O=C(O)/C=C\C(=O)O (stereo not drawn) [ROSIGLITAZONE MALEATE]
-- reply 0 (no)

-- ask Quick check: does CC(=O)[C@@]1(O)CC[C@H]2[C@@H]3C=C(Cl)C4=CC(=O)CC[C@]4(C)[C@H]3CC[C@@]21C have APTT greater than or equal to 20 s?
-- reply 1 (yes)

###

Please provide measured Mono for the entries that follow.
organism: Rattus norvegicus; experiment: Open TG-GATES - Regimen: Single; format: toxicity, organism-based, Sprague-Dawley; design: regimen Single, gender Male, age 6 weeks; details: in vivo, po, 0 mg/kg, 3 h, tissue Blood, route gavage, dose level Control
Give the number first and the unit second.

-- ask Provide only the value of recorded Mono for CN(C/C=C/C#CC(C)(C)C)Cc1cccc2ccccc12
-- reply 2.4%

-- ask Identify the reported Mono for the following entry. CCO
-- reply 7.6%

-- ask Consider the compound O=C(O)c1ccccc1Nc1ccccc1 . State its measured Mono.
-- reply 2%

-- ask Query Mono for NS(=O)(=O)c1cc(C(=O)O)c(NCc2ccco2)cc1Cl [FUROSEMIDE]
-- reply 2.8%

###

Task for the reader: assign each of the following molecules its reported gamma-GTP.
species on record: Rattus norvegicus; assay: Open TG-GATES - Regimen: Single; format: toxicity, organism-based, Sprague-Dawley; set-up: regimen Single, gender Male, age 6 weeks; settings: in vivo, po, 0 mg/kg, 9 h, tissue Plasma, route gavage, dose level Control
Unit IU/L implied. Number only.

-- ask Report measured gamma-GTP; entry is CN(CCOc1ccc(CC2SC(=O)NC2=O)cc1)c1ccccn1.O=C(O)/C=C\C(=O)O (configuration not stated) [ROSIGLITAZONE MALEATE]
-- reply 1

-- ask Give me measured gamma-GTP, please, for this molecule: C=C[C@H]1C[N@@]2CC[C@H]1C[C@@H]2[C@@H](O)c1ccnc2ccc(OC)cc12
-- reply 1.6

-- ask Provide one value: measured gamma-GTP of CN(C/C=C/C#CC(C)(C)C)Cc1cccc2ccccc12
-- reply 1.4

-- ask Please give the documented gamma-GTP of NS(=O)(=O)c1cc(C(=O)O)c(NCc2ccco2)cc1Cl [FUROSEMIDE]
-- reply 0.8

-- ask Return gamma-GTP (reported value) for this molecule: COc1cc2ncnc(Nc3ccc(F)c(Cl)c3)c2cc1OCCCN1CCOCC1
-- reply 1

-- ask Identify measured gamma-GTP associated with CCN(CC)C(=S)SSC(=S)N(CC)CC
-- reply 1

-- ask Quick one: give measured gamma-GTP for CC(=O)[C@@]1(O)CC[C@H]2[C@@H]3C=C(Cl)C4=CC(=O)CC[C@]4(C)[C@H]3CC[C@@]21C
-- reply 1.6

###

species on record: Rattus norvegicus; test: Open TG-GATES - Regimen: Daily Repeat; type: toxicity, organism-based, Sprague-Dawley; set-up: regimen Daily Repeat, gender Male, age 6 weeks; conditions: in vivo, po, 0 mg/kg, […], tissue Kidney, route gavage, dose level Control, time 7 day
measured.attribute: KIDNEY_TOTAL (g)
Respond numerically; units are g and should not be typed.

-- ask Look up KIDNEY_TOTAL of COc1ccc([C@@H]2Sc3ccccc3N(CCN(C)C)C(=O)[C@@H]2OC(C)=O)cc1 and report it.
-- reply 2.1

-- ask Supply recorded KIDNEY_TOTAL for O=C(O)c1ccccc1Nc1ccccc1 here.
-- reply 2.2

-- ask Indicate the recorded KIDNEY_TOTAL value for this compound: O=c1ccc2ccccc2o1
-- reply 2

-- ask Identify measured KIDNEY_TOTAL associated with CN(CCOc1ccc(CC2SC(=O)NC2=O)cc1)c1ccccn1.O=C(O)/C=C\C(=O)O (stereo not given) [ROSIGLITAZONE MALEATE]
-- reply 0.7

-- ask Hello, please tell me recorded KIDNEY_TOTAL for this one: CCCCC1C(=O)N(c2ccccc2)N(c2ccccc2)C1=O
-- reply 2.3

Just for reference, ChEMBL document CHEMBL3885861 is where these values come from.
